Tested on: U251 CNS
ASSAY PROCEDURE: NCI-60 one-dose screen, 48 h (100 = growth as untreated, 0 = no growth, -100 = all killed)
REPORTED CONDITIONS: 10 µM unless noted
The panel holds about 83,000 compounds, 20% with a hit somewhere; the sample as a whole holds those more often.
MEASUREMENT KIND: growth (%)
Give the value in % but do not write % after it.

Guide cases for growth, answers given:
COc1cnc2c(c1)C(=O)c1c-2n(CCCNC(C)C)c(=O)c2cc(Cl)ccc12
-86.6
COc1ccc(-c2cc(-c3cc4ccccc4oc3=O)n(-c3ccccc3)n2)cc1
31.4
COc1ccc(/C=C/C(=O)CCC(=O)O)cc1OC
107
CC(=O)NC1C(O[C@H]2C[C@H]3[C@@H]4CC=C5C[C@@H](O)CC[C@]5(C)[C@H]4CC[C@]3(C)[C@H]2[C@H](C)C(=O)CCC(C)C)OCC(O)C1O (stereo not given in full)
28

IN: Report growth for `CCCCCCCC/C=C/CCCCCCCC1=NC(C)(C)CN1c1ccccc1` tested on U251 CNS.
OUT: 84.5

IN: Next entry: C=CCOC(=O)C1=C(C)NC2=C(C(=O)CCC2)C1c1ccc(F)cc1 (stereo not given)
OUT: 97.8

IN: Next entry: `c1coc(CNc2c3ccccc3nc3ccccc23)c1`
OUT: 65.1

IN: Next entry: `CSc1ccc(/C=C2\C=C(CC(=O)NCc3ccc(C(=O)c4ccccc4)cc3)c3cc(F)ccc32)cc1`
OUT: -2.89

IN: Next entry: `OC(COCc1ccccc1)COCc1ccccc1`
OUT: 96.1

IN: Next entry: CC1=CC(=O)OC1C/C=C(\C)CCC1[C@@]2(C)CCC[C@@](C)(C(=O)O)C2CC[C@@]1(C)O (stereo not given in full)
OUT: 35.4

IN: Next entry: `Clc1cc2nc(-c3ccccc3)c(-c3ccccc3)nc2cc1Cl`
OUT: 95.7

IN: Next entry: `CCc1c(C)c2ccc(O)c(-c3cc(-c4ccccc4)c(C#N)c(=O)[nH]3)c2oc1=O`
OUT: 100

IN: Next entry: `CC(C)CCSc1nc(-c2ccc(F)cc2)c(C#N)c(N2CCCCC2)n1`
OUT: 93.6

IN: Next entry: COc1ccc(C(=O)N2N=C(c3ccc(F)cc3)CC2c2cn(-c3ccccc3)nc2-c2ccccc2)cc1 (stereo not given)
OUT: 30.6

IN: Next entry: `O=C(Nc1ccc(Br)cc1)c1ccc(Cl)c(Cl)c1`
OUT: 32.4

IN: Next entry: `O=c1c2cc(Br)cc(Br)c2nc(-c2ccc(Cl)cc2)n1/N=C\c1ccccc1F`
OUT: 55.1

IN: Next entry: CN1C(=O)NC(Cc2c[nH]c3c(Cl)cccc23)C1=O (stereo not given)
OUT: 92.8

----------
Tested on: IGROV1 ovarian
ASSAY PROCEDURE: NCI-60 one-dose screen, 48 h
REPORTED CONDITIONS: 10 µM unless noted
About 83,000 compounds went through this panel and 20% of them were active in at least one assay; those are over-represented in the sample as a whole. The source made the active and inactive calls. Rule for the calls: active = growth percent below 10; inactive = the rest.
Please state which outcome applies, choosing from True (active), False (inactive)

Illustrative cases are given below, each with its answer.
COc1cc(C2CC(c3ccc(Cl)cc3)=NN2C=O)ccc1Oc1ccnc2cc(Cl)ccc12 (centres undefined)
False
O=C1OCC2=C1C(c1ccccc1)c1cc3c(cc1N2CCO)CCC3 (centres undefined)
False
ClCc1c(Cl)c(Cl)c(Cl)c(CCl)c1Cl
True
CC(C)[C@@]12C[C@@H](OC(=O)[C@H]3CO3)[C@@](C)(O1)[C@@H]1CC[C@@H](C)[C@H]1[C@@H]2OC(=O)/C=C/c1ccccc1
False
CCCCCCCC/C=C/CCCCCCCC1=NC(C)(C)CN1C(C)C
True

IN: Hi, do you know how `CC(C)CCSc1nc(-c2ccc(F)cc2)c(C#N)c(N2CCN(C)CC2)n1` came out in this test?
OUT: False

IN: Next entry: `CCOC(=O)c1ccc2c(c1)[n+](=O)c(C(=O)c1ccc3ccccc3c1)c(C(F)(F)F)n2[O-]`
OUT: True

IN: Next entry: `O=c1c2cc(Cl)ccc2oc2ccc(OCCCCCN3CCCCCC3)cc12`
OUT: False

IN: Next entry: `CCCCOc1nc2ccc(C)cc2cc1/C=C/C(=O)/C=C(O)/C=C/c1cc2cc(C)ccc2nc1OCCCC`
OUT: False

----------
System: MALME-3M melanoma
ASSAY PROCEDURE: NCI-60 one-dose screen, 48 h (100 = growth as untreated, 0 = no growth, -100 = all killed)
REPORTED CONDITIONS: 10 µM unless noted
Compounds without any hit were thinned out: in the full panel of roughly 83,000, 20% have a hit.
# thresholds on growth define classes: bucket A (below 70%), bucket B (70% to below 90%), bucket C (90% or more)

Illustrative cases are given below, each with its answer.
CC(=O)c1ccc(Br)c([N+](=O)[O-])c1
bucket C
O=C(/C=C/c1ccco1)c1ccccc1O
bucket C

Below: the item to evaluate.
IN: Which growth category applies to `O=C(N/N=C/c1ccc([N+](=O)[O-])o1)c1ccc(O)cc1` here?
OUT: bucket A

----------
System: SN12C renal
ASSAY PROCEDURE: NCI-60 one-dose screen, 48 h (100 = growth as untreated, 0 = no growth, -100 = all killed)
REPORTED CONDITIONS: 10 µM unless noted
About 83,000 compounds went through this panel and 20% of them were active in at least one assay; those are over-represented in the sample as a whole.
Param threshold (70%) applies to growth; output TRUE when value >= threshold, FALSE when value < threshold.

Illustrative cases are given below, each with its answer.
COc1ccc(-c2cc(-c3cn(-c4cccc(Cl)c4)nc3-c3ccc(OC)cc3)[nH]c(=S)n2)cc1
TRUE
COc1ccc2c(c1)N(Cc1ccc(Cl)cc1)CCC2N1CCCC1=O (stereo not drawn)
FALSE
CC(C)CCC(=O)[C@@H](C)[C@H]1[C@@H](OC2OCC(O)C(O)C2NS(C)(=O)=O)C[C@H]2[C@@H]3CC=C4C[C@@H](O)CC[C@]4(C)[C@H]3CC[C@]12C (stereo partly drawn)
TRUE
O=C(N/N=C/c1ccc([N+](=O)[O-])cc1)c1ccccc1Nc1ccnc(C(F)(F)F)c1
TRUE

IN: Does the compound O=C1OCC2=C1C(c1ccccc1)c1cc3c(cc1N2CCO)CCC3 (stereo not drawn) have recorded growth that is 70% or more?
OUT: FALSE

IN: Next entry: `O=C1c2cccc3cccc(c23)C(=O)N1CCCCCCCCCCN1C(=O)c2cccc3cccc(c23)C1=O`
OUT: TRUE

IN: Next entry: CC(CN1CCN(CC(C)Nc2ccnc3cc(Cl)ccc23)CC1)Nc1ccnc2cc(Cl)ccc12 (stereo not drawn)
OUT: FALSE

IN: Next entry: `CCCCOc1nc2ccccc2cc1/C=C/c1cc(/C=C/c2cc3ccccc3nc2OCCCC)n(-c2ccccc2)n1`
OUT: TRUE

IN: Next entry: `N#CCCn1cnc2c(N)ncnc21`
OUT: TRUE

IN: Next entry: `CCOC(=O)c1ccc2c(c1)nc(-c1ccc(Cl)cc1)n2-c1cc(C(C)(C)C)[nH]n1`
OUT: FALSE

IN: Next entry: CO[C@H](C(=O)[C@@H](O)[C@@H](C)O)[C@@H]1Cc2cc3cc(O[C@H]4C[C@@H](O[C@H]5C[C@@H](O)[C@H](O)C(C)O5)[C@H](O)C(C)O4)c(C)c(O)c3c(O)c2C(=O)[C@H]1O[C@H]1C[C@@H](O[C@H]2C[C@@H](O[C@H]3C[C@](C)(O)C(=O)C(C)O3)[C@@H](O)C(C)O2)[C@H](O)C(C)O1 (stereo partly drawn)
OUT: FALSE

IN: Next entry: O=C(O)C(CCc1ccccc1)NCc1ccccc1 (stereo not drawn)
OUT: TRUE

IN: Next entry: `CCCNCCC(C)=O`
OUT: TRUE

----------
Test system: 786-0 renal
ASSAY PROCEDURE: NCI-60 one-dose screen, 48 h (100 = growth as untreated, 0 = no growth, -100 = all killed)
REPORTED CONDITIONS: 10 µM unless noted
The panel holds about 83,000 compounds, 20% with a hit somewhere; the sample as a whole holds those more often.
# strict inequality: growth < 50% yields yes, everything else yields no

Illustrative cases are given below, each with its answer.
CN1C(=O)N(C)C2C1NN=c1s/c(=C\c3ccsc3)c(=O)n12 (stereo not given)
yes
CCCCCCCCCCCCCCCCCC(=O)OCCCCCCCCCCCCC
no
CN1C(=O)C(C(=O)/C=C/c2ccccc2C(=O)O)C(=O)N(C)C1=O
no
COc1cc(C2CC(c3ccc(C)cc3)=NN2C=O)ccc1Oc1ccnc2cc(Cl)ccc12 (stereo not given)
yes
Cc1cccc(N=NC(=S)NNc2cccc(C)c2)c1
no
Nc1c(Br)cc2c(c1Br)Cc1cc(Cl)ccc1-2
no

IN: A record lists `COc1ccc(/C=N/NC(N)=S)c(OC)n1` . Is its growth below 50%?
OUT: no

IN: Next entry: CCN1C(=O)C(C)C=C(C)C=C1C (stereo not given)
OUT: no

IN: Next entry: `C=C1C(=O)O[C@H]2[C@H]1CC/C(COC(=O)NCc1cn(C)c3ccccc13)=C\CC[C@@]1(C)O[C@@H]21`
OUT: yes

IN: Next entry: `CN(C)c1ccc(C2(Cl)c3ccccc3N(C)c3ccccc32)cc1`
OUT: no

IN: Next entry: CCN1C(=O)N(CC)C2C1NC(=O)N2/N=C/C=C/c1ccccc1 (stereo not given)
OUT: yes

IN: Next entry: `C=CC(=O)N1CN(C(=O)C=C)CN(C(=O)C=C)C1`
OUT: no

IN: Next entry: COc1ccc(C(=O)OC2C(OC3C(O)COC(O[C@H]4C[C@H]5[C@@H]6CC=C7C[C@@H](O)CC[C@]7(C)[C@H]6CC[C@]5(C)[C@H]4[C@H](C)C(=O)CCC(C)C)C3OC(N)=O)OCC(O)C2O)cc1 (stereo not given in full)
OUT: yes

IN: Next entry: `Cc1ccc(C(=O)CC(=O)C(F)(F)C(F)(F)C(F)(F)F)s1`
OUT: no

IN: Next entry: `O=C(Cc1ccc([N+](=O)[O-])cc1)Oc1ccccc1`
OUT: no

IN: Next entry: `CCOC(=O)c1cc(C(=O)OCC)c(C)nc1C`
OUT: no

IN: Next entry: `CCCCCCCCCCCCCCCCCC(=O)[O][Sn]([CH2]CCC)([CH2]CCC)[CH2]CCC`
OUT: yes
